- Target: KDR (baculovirus expressed human KDR kinase domain D807-V1356) (Homo sapiens, UniProt P35968);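 note: Luciferase-coupled chemiluminescent kinase assay, activity read as percent ATP left after 4 h reaction at ambient temperature, ATP near KM, 10-point dose-response in 384-well plates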
- Construct: human KDR kinase domain D807-V1356; host or cells: baculovirus expression
- Sequence (P35968 807-1356): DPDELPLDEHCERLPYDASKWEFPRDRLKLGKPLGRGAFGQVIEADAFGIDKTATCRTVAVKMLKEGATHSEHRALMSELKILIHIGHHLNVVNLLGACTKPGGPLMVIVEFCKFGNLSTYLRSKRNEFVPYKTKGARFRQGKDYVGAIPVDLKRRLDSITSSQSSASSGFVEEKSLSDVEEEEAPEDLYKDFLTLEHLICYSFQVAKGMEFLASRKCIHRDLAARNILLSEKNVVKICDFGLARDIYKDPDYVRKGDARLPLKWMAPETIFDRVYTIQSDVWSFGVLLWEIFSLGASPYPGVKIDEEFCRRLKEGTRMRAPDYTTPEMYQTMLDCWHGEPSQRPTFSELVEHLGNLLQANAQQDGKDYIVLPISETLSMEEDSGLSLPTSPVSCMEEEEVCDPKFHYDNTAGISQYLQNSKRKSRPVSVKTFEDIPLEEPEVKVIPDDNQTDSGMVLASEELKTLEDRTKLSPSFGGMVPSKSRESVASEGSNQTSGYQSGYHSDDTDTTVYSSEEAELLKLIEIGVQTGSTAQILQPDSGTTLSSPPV
- Test Description: biochemical
- Test Conditions: Table 4, inhibition as IC50 class
// reported IC50 for each item listed

>>> print(df.to_string())
                                   molecule      meas_value
0  COc1cc2c(Oc3ccc(NC(=O)C(=O)NCc4cccc(C(F)(F)F)c4)cc3F)ccnc2cc1OCC1CCNCC1       < 0.05 µM
1  CC[C@@H](NC(=O)C(=O)Nc1ccc(Oc2ccnc3cc(OCC4CCNCC4)c(OC)cc23)c(F)c1)c1ccccc1  0.05 to 0.5 µM
2  COc1cc2c(Oc3ccc(NC(=O)C(=O)N[C@H]4CCCc5ccccc54)cc3F)ccnc2cc1OCC1CCNCC1       < 0.05 µM

Moving on to another molecule below.
In: Report IC50 for COc1cc2c(Oc3ccc(NC(=O)C(=O)NCC(C)c4ccccc4)cc3F)ccnc2cc1OCC1CCNCC1 (stereo not shown)
Out: < 0.05 µM
